assay: in vivo; parameters: species or system mice (Std:ddY); conditions: mouse, in vivo, po; mortality during 72 hours; Litchfield-Wilcoxon
Known LD50 at 72 h of a selection of molecules

CCN1CC2(COC)C(O)CC(OC)C34C5CC6(O)C(OC)C(O)C(C5C6OC(=O)c5ccccc5)C(C(OC)C23)C14 (centres unmarked) [8-deoxy-14-O-benzoylaconine, reference compound]; > 100 mg/kg

Q. Sample CCN1C[C@]2(COC)[C@H](O)C[C@H](OC)[C@]34C1[C@H]([C@H](OC)[C@H]23)[C@]1(O)[C@H]2[C@@H](OC(=O)c3ccc(Cl)cc3)[C@](O)(C[C@H]24)[C@@H](OC)[C@@H]1O — what was its LD50 at 72 h?
A. > 1000 mg/kg
